From: PubChem BioAssay

- experiment_description: viability rescue of complex I mutant cybrids, primary screen, cell-based, galactose medium, ATP luminescence (AID 1645843);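 note: positive z means more ATP and so rescue of galactose-driven cybrid death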
- test_parameters: complex I mutant cybrid cells, 72 h, hits give high values
# z-score >= 0.07 gives yes (1), anything below gives no (0)

Hello, I need to know if `C=CCN1CC[C@]23c4c5ccc(O)c4O[C@H]2/C(=N/N=C2\CC[C@@]4(O)[C@H]6Cc7ccc(O)c8c7[C@@]4(CCN6CC=C)[C@H]2O8)CC[C@@]3(O)[C@H]1C5` has measured z-score not below 0.07. Thanks! no (0)

Hello, I need to know if C=CC(C)(C)c1cc2cc3c(cc2oc1=O)OC(C(C)(C)O)C3 (stereo unspecified) has measured z-score not below 0.07. Thanks! no (0)

Hello, I need to know if `N#Cc1ccc(N2CCN(C(=O)COc3ccc4[nH]cc(CCN)c4c3)CC2)cc1` has measured z-score not below 0.07. Thanks! yes (1)

Hello, I need to know if `CCC[C@@H]1CC2=CC(=O)CC[C@]2(C)[C@H]2CC[C@@]3(C)[C@@H](CC[C@@]3(O)CCC(=O)O)[C@H]12` has measured z-score not below 0.07. Thanks! no (0)

Hello, I need to know if `c1ccc(Cn2ccnc2)cc1` has measured z-score not below 0.07. Thanks! yes (1)

Hello, I need to know if `N[C@H]1C[C@@H]1c1ccccc1` has measured z-score not below 0.07. Thanks! yes (1)
